Compiled literature IC50, tested on Glycogen synthase kinase-3 beta (Homo sapiens).
Sequence (P49841 whole entry): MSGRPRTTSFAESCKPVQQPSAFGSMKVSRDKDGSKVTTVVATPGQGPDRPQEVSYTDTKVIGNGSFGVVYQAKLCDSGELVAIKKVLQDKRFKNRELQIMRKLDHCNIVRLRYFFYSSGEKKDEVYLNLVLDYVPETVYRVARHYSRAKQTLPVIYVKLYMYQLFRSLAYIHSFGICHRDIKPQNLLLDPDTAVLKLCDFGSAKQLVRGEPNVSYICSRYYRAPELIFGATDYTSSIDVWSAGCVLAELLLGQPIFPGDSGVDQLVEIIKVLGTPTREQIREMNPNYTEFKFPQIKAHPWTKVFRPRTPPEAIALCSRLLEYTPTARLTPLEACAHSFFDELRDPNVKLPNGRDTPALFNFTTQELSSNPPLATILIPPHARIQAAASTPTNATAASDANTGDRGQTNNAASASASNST

Consider the molecule shown here: CC1(C)CC(=O)C2=C(C1)NC1N=NC(Br)=C1[C@]21CCc2c(F)cccc21 (some centres not stated) What is its recorded IC50?
< 100 nM

Then this molecule: Cc1ccccc1C1C2=C(CC(C)(C)CC2=O)Nc2n[nH]c(C)c21 (configuration not stated)
102 nM

Do the same for CCC1(c2cccc(N(C)c3ccncn3)c2)C2=CN=NC2NC2=C1C(=O)CC(C)(C)C2 (configuration not stated) please
100 to 1000 nM

Please give the result for CC[C@]1(c2cccc(-c3c(Cl)cncc3Cl)c2)C2=CN=NC2NC2=C1C(=O)NC(C)(C)C2 (some centres not stated) too.
> 5000 nM

Moving on to CC[C@]1(c2cccc(Br)c2)C2=CN=NC2NC2=C1C(=O)C[C@@H](C)C2 (some centres not stated)
> 5000 nM

Could you do the same for CCOc1ccc(-n2cc(Cn3c(=O)oc4cccnc43)nn2)cc1 , please?
37300 nM

Please do the same for CC(C)(C)CC1=C2C(N=N1)NC1=C(C(=O)CC(C)(C)C1)C21CCc2cccc(F)c21 (configuration not stated) as well.
100 to 1000 nM
